Target: T1, recombinant human EGFR extracellular domain with 6xHis (human, UniProt P00533 25-645)
T1 construct: In-house produced; also called 6xHis EGFR ECD; soluble human EGFR ECD; not shown: 6xHis tag
Assay: SPR competition, competitor Ab-1
Protocol: SPR analysis was performed on a Biacore 3000 machine containing four flow cells. A CM5 Biacore chip was conjugated with 10,000 Resonance units (Ru) polyclonal anti-His antibody to flow cells 1-4 according to the manufacturer's instructions. […] Immediately after antigen injection the maximal binding of the Anti-EGFR mAb without competition was established in each flow cell during a reference run. […]
result.type: % inhibition (%)
Answers are plain numbers, in %.

So what's the measured % inhibition for this one? antibody 1284 (antibody, human IgG1, kappa, V domains shown, Chimeric IgG1 kappa) VH: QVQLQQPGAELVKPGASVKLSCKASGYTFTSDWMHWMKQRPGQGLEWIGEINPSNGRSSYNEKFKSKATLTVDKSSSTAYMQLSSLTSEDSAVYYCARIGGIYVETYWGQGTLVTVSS VL: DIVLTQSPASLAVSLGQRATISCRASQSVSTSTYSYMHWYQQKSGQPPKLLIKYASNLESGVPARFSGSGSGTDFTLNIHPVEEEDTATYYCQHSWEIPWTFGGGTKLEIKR -9
